System: CCRIS mutagenicity, Ames/micronucleus/aberration tests
Assay: CCRIS mutagenicity studies
Conditions: Test System: AMES SALMONELLA TYPHIMURIUM; Strain/Indicator: TA100; Metabolic Activation: HAMSTER, LIVER, S-9, AROCLOR 1254 (30%); Method: PREINCUBATION
Active and inactive are the calls of the source. No rule for the calls is given here.
reportedEndpoint: mutagenic call

Example entries and their recorded answers appear below.
{"columns": ["smilesStructure", "mutagenic call"],
 "data": [
  ["FC(F)(F)c1ccccc1Cl", "inactive; negative"],
  ["C=C(C)c1ccccc1", "inactive; negative"],
  ["CC(C)(C)OOC(C)(C)C", "inactive; negative"],
  ["Oc1c(Cl)c(Cl)cc(Cl)c1Cl", "inactive; negative"],
  ["CCCCCCCCCCCC[S][Sn]([CH2]CCC)([CH2]CCC)[S]CCCCCCCCCCCC", "inactive; negative"]
]}

Quick batch: mutagenic call for everything below.
1. COP(=O)(OC)OC=C(Cl)Cl
2. Nc1ccccc1C(=O)OC1CCCCC1
3. Nc1ccc(Br)cc1
4. c1ccc(COCc2ccccc2)cc1
5. O=[N+]([O-])C(Br)(Br)Br

## Output
1: active; positive; 2: inactive; negative; 3: inactive; negative; 4: inactive; negative; 5: active; positive

----------
Test system: CCRIS mutagenicity, Ames/micronucleus/aberration tests
Assay: CCRIS mutagenicity studies
Settings: Test System: AMES SALMONELLA TYPHIMURIUM; Strain/Indicator: TA100; Metabolic Activation: RAT, LIVER, S-9, PCB; Method: PREINCUBATION
Excerpt: The CCRIS database contains chemical records with carcinogenicity, mutagenicity, tumor promotion, and tumor inhibition test results. It was developed by the National Cancer Institute (NCI). Data are derived from studies cited in primary journals, current awareness tools, NCI reports, and other sources. Test results have been reviewed by experts in carcinogenesis and mutagenesis. CCRIS provides historical information from the years 1985 - 2011. It is no longer updated. […]
The source made the active and inactive calls. The rule behind the calls is not given here.
// one of yes (1) (active), no (0) (inactive), no free text

{"columns": ["compound", "systemName", "category"],
 "data": [
  ["C[Si](C)(C)CN=[N+]=[N-]", "CCRIS mutagenicity, Ames/micronucleus/aberration tests", "yes (1)"]
]}

## Input I would be grateful if you could indicate the recorded call for CC(C)(C)C1=CC(=O)C=CC1=O .
## Output no (0)

## Input Name the outcome recorded for O=C(O)c1ccccc1 in the assay.
## Output no (0)

## Input Outcome? Nc1ccc(Cl)cc1N
## Output yes (1)

## Input Hi team, can someone confirm the assay call for CNc1ccc2nc(C)c(C)nc2c1C ?
## Output yes (1)

## Input Hi team, can someone confirm the assay call for Cc1ccc(NO)c(C)c1 ?
## Output yes (1)

## Input Write down the call the test reported for this compound. Item: CC1CN(N=O)CC(C)O1 (stereo unspecified)
## Output yes (1)

## Input Recorded test call requested for Nc1ncnc2nc(-c3ccc([N+](=O)[O-])cc3)[nH]c12
## Output yes (1)

## Input What classification did Cc1c(N(C)CS(=O)(=O)O)c(=O)n(-c2ccccc2)n1C end up with in this test?
## Output yes (1)

## Input Per the assay record, what outcome was assigned to Cc1ccc(S(=O)(=O)OC[C@H]2CO2)cc1 ?
## Output yes (1)

## Input // param item: [O-][n+]1cc2cnccc2cn1 ; yields the recorded call
## Output no (0)
